Data origin, for the record: the array DNA melting data of Ke et al. (doi:10.1101/2024.01.08.574731)

assay: folding enthalpy; higher = less favourable; fluorescence melt of hairpins on a sequencing array, two-state fit; conditions: sodium 0.088 M
READOUT LABEL: folding enthalpy (kcal/mol)
Answers are plain numbers, in kcal/mol.

# example entries with known answers
>  <CHAIN SEQUENCE>
GAGCGCGAAAGCGTGCTC ((((((....)))..)))

>  <folding enthalpy, kcal/mol>
-17.1

$$$$
>  <CHAIN SEQUENCE>
GCGATGCGAAAGCAGTGC ((..(((....)))..))

>  <folding enthalpy, kcal/mol>
-22.7

$$$$
>  <CHAIN SEQUENCE>
GATCTAGCACTAGATC ((((((....))))))

>  <folding enthalpy, kcal/mol>
-43.9

$$$$
>  <CHAIN SEQUENCE>
GATCTTCCTTAAGATC ((((((....))))))

>  <folding enthalpy, kcal/mol>
-27.8

$$$$
>  <CHAIN SEQUENCE>
GTGATCTCGAAAGAGCAC (((..(((....))))))

>  <folding enthalpy, kcal/mol>
-25.7

$$$$
>  <CHAIN SEQUENCE>
GAGATCCGAAAGGAACTC (((.(((....))).)))

>  <folding enthalpy, kcal/mol>
-32.2

$$$$
>  <CHAIN SEQUENCE>
GCCCAGCGAAAGCTATGC ((..(((....)))..))

>  <folding enthalpy, kcal/mol>
-5.13

$$$$

Now take the following sequence into account.
Which value of folding enthalpy has been reported for GAACACGCGAAAGCGTTC (((..(((....)))))) in the records?
-8.07

* * *

assay: melting temperature; fluorescence melt of hairpins on a sequencing array, two-state fit, raised by 9.35 °C to match UV melts; conditions: sodium 0.088 M
Rule: Tm of 50 °C or more gives 1; anything lower gives 0.

// below: answered sequences
>  <CHAIN SEQUENCE>
GATCGGTTTCCCGATC ((((((....))))))

>  <LABEL VALUE>
1

$$$$
>  <CHAIN SEQUENCE>
GAGCGCGAAAGCGACTC ((((((....))).)))

>  <LABEL VALUE>
1

$$$$
>  <CHAIN SEQUENCE>
GTAGGAGCGAAAGCTTAC (((..(((....))))))

>  <LABEL VALUE>
0

$$$$

Check this sequence for Tm at or above 50 °C: GGTCTAGGAAACCAGACC (((((.(....).)))))
0

Check this sequence for Tm at or above 50 °C: GCCTCTCGAAAGAGCGGC (((.(((....))).)))
1

Check this sequence for Tm at or above 50 °C: GTTGCCGAAAGGCGGAAC ((((((....)))..)))
0

Check this sequence for Tm at or above 50 °C: GATAAGCGAAAGCTGATC (((.(((....))).)))
0

Check this sequence for Tm at or above 50 °C: GCGGTCGGAAACAACCGC (((((.(....).)))))
1

* * *

test: melting temperature; fluorescence melt of hairpins on a sequencing array, two-state fit, raised by 9.35 °C to match UV melts; details: sodium 0.088 M
READOUT LABEL: Tm (°C)
Give bare numbers, in °C.

# batch: return Tm for each of the 3 sequences below
1. GTATAGCGAAAGCTTAC (((.(((....))))))
2. CGGCCGGAAACGGATCCG ((((((....)))..)))
3. GCTCAGCGAAAGCTTCGC ((..(((....)))..))

1. 39.2
2. 39.8
3. 40

* * *

experiment: folding enthalpy; higher = less favourable; fluorescence melt of hairpins on a sequencing array, two-state fit; conditions: sodium 0.088 M
READOUT LABEL: folding enthalpy (kcal/mol)
Give bare numbers, in kcal/mol.

# example entries with known answers
>  <CHAIN SEQUENCE>
GTGCTCGAAAGAGTCAC ((((((....))).)))

>  <folding enthalpy / kcal/mol>
-26.7

$$$$
>  <CHAIN SEQUENCE>
GTCAGATCGAAAGATGAC (((..(((....))))))

>  <folding enthalpy / kcal/mol>
-22.2

$$$$
>  <CHAIN SEQUENCE>
GATAGCGGAAACGCTATC (((((((....)))))))

>  <folding enthalpy / kcal/mol>
-34.4

$$$$

# batch: return folding enthalpy for each of the 4 sequences below
1. GCAGCTTCGAAAGAATGC (((..(((....))))))
2. GGGCCTGGAAACAGGCTC (.(((((....))))).)
3. GGAAAGGGAAACCTTTTC (.(((((....))))).)
4. GTTTACGAAAGTACAAC ((((((....))).)))

[-12.8, -15.9, -24.3, -11.9]

# batch: return folding enthalpy for each of the 4 sequences below
1. GATCTCTCCGGAGATC ((((((....))))))
2. GATCTCGTCGAGATC ((((((...))))))
3. GATCTTAGGAAGATC ((((((...))))))
4. GACGCGGGAAACTGCGTC (((((.(....).)))))

1. -39.6
2. -31.1
3. -30.5
4. -35.2

* * *

assay: melting temperature; fluorescence melt of hairpins on a sequencing array, two-state fit, raised by 9.35 °C to match UV melts; details: sodium 0.088 M
Provide the reported Tm of each item.
Numbers only, in °C.

# example entries with known answers
>  <CHAIN SEQUENCE>
GACGAGGGAAACTTCGTC (((((.(....).)))))

>  <VALUE>
49

$$$$
>  <CHAIN SEQUENCE>
GATCCTCCAAAGGATC ((((((....))))))

>  <VALUE>
50.4

$$$$

# batch: return Tm for each of the 4 sequences below
1. GAGCGCGAAAGCGGGCTC ((((((....)))..)))
2. GTAACACGAAAGTGCTAC (((.(((....))).)))
3. GGCCTAGGAAACTGGGTC (.((.((....)).)).)
4. CGCCCGGAAACGGATGCG ((((((....)))..)))

67.9
43.7
40.9
48.4

* * *

assay: folding enthalpy; higher = less favourable; fluorescence melt of hairpins on a sequencing array, two-state fit; conditions: sodium 0.088 M
Rule: folding enthalpy of -20 kcal/mol or more gives True; anything lower gives False.

>  <CHAIN SEQUENCE>
GCGTGTACGAAAGTACGC (((..(((....))))))

>  <LABEL VALUE>
True

$$$$
>  <CHAIN SEQUENCE>
GGCAACGAAAGTTAGGCC ((((((....)))..)))

>  <LABEL VALUE>
False

$$$$
>  <CHAIN SEQUENCE>
GATCCCCCGTGGGATC ((((((....))))))

>  <LABEL VALUE>
False

$$$$

Check this sequence for folding enthalpy at or above -20 kcal/mol: GCCTAACGAAAGTTTGGC (((.(((....))).)))
False

Check this sequence for folding enthalpy at or above -20 kcal/mol: GCAAATCGAAAGATGTGC (((.(((....))).)))
False

Check this sequence for folding enthalpy at or above -20 kcal/mol: GGCATCCGAAAGGAGGCC (((.(((....))).)))
False

Check this sequence for folding enthalpy at or above -20 kcal/mol: GGCATGGGAAACCACGCC (((.(((....))).)))
False

Check this sequence for folding enthalpy at or above -20 kcal/mol: GACATGGGAAACCATGCC (.(((((....))))).)
True

Check this sequence for folding enthalpy at or above -20 kcal/mol: GACGATGGAAACGTTGTC (((.(.(....).).)))
False

Check this sequence for folding enthalpy at or above -20 kcal/mol: GCCTGACGAAAGTCGGC (((.(((....))))))
False

Check this sequence for folding enthalpy at or above -20 kcal/mol: GCGTTGGGAAACCAACAC (.(((((....))))).)
True

Check this sequence for folding enthalpy at or above -20 kcal/mol: GATCCTTACAGGATC ((((((...))))))
False

Check this sequence for folding enthalpy at or above -20 kcal/mol: GCCAAGCGAAAGCAAGGC (((..((....))..)))
False

* * *

experiment: folding enthalpy; higher = less favourable; fluorescence melt of hairpins on a sequencing array, two-state fit; settings: sodium 0.088 M
Provide the reported folding enthalpy of each item.
One number for each entry, in kcal/mol.

# example entries with known answers
>  <CHAIN SEQUENCE>
GACGTAGGAAACTGCGTC ((((.((....)).))))

>  <UNIT STRING>
kcal/mol

>  <folding enthalpy>
-45.2

$$$$
>  <CHAIN SEQUENCE>
GATCCCCATAGGGATC ((((((....))))))

>  <UNIT STRING>
kcal/mol

>  <folding enthalpy>
-41.1

$$$$

# batch: return folding enthalpy for each of the 2 sequences below
1. GTTGATGGAAACACCAAC ((((.((....)).))))
2. GCACACGAAAGTGCGTGC ((((((....)))..)))

[-30.2, -17]
